Could you please report measured pIC50 NET for the items listed next?
molecular target: human NET (Homo sapiens, UniProt P23975); construct: expressed in transfected cells; experiment: cell-based; settings: QSAR data matrix, from IC50 NET
Sequence (P23975 whole entry): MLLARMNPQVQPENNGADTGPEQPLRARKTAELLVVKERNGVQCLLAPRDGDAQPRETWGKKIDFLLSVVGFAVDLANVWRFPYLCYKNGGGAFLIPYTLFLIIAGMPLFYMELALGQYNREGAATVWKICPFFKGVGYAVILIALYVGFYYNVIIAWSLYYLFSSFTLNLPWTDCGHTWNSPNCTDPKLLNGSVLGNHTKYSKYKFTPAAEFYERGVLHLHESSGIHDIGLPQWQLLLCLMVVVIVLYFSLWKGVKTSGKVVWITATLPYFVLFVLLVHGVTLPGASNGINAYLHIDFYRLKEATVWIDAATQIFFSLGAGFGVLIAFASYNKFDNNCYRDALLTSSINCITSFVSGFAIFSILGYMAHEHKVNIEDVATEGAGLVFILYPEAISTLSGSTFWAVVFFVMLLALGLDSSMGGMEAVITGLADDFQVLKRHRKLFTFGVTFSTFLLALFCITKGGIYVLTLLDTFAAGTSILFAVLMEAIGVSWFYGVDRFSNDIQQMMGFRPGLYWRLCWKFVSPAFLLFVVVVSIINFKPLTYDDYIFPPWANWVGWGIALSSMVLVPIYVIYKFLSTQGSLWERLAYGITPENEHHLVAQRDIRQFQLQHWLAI
Returns: the value as a bare number; no unit string appended.

Would you kindly share the measured pIC50 NET for CN[C@@H](C)[C@@H](O)c1ccc(C)cc1 [1S2S-MMC, reference compound] ?
4.33

Would you kindly share the measured pIC50 NET for Cc1ccc(C(=O)[C@H](C)N)cc1 [2S-MC, reference compound] ?
5.42

Would you kindly share the measured pIC50 NET for CN[C@@H](C)[C@H](O)c1ccc(C)cc1 [1R2S-MMC, reference compound] ?
4.41

Would you kindly share the measured pIC50 NET for Cc1ccc(C(=O)[C@@H](C)N)cc1 [2R-MC, reference compound] ?
5.34

Would you kindly share the measured pIC50 NET for CN[C@H](C)[C@H](O)c1ccc(C)cc1 [1R2R-MMC, reference compound] ?
4.41

Would you kindly share the measured pIC50 NET for CN[C@H](C)[C@@H](O)c1ccc(C)cc1 [1S2R-MMC, reference compound] ?
4.64

----------
target: DAT (Homo sapiens, UniProt Q01959); construct: expressed in transfected cells; test: cell-based; conditions: mean (95% confidence interval), non-linear regression; read-out: IC50 (µM) DAT
Sequence (Q01959 whole entry): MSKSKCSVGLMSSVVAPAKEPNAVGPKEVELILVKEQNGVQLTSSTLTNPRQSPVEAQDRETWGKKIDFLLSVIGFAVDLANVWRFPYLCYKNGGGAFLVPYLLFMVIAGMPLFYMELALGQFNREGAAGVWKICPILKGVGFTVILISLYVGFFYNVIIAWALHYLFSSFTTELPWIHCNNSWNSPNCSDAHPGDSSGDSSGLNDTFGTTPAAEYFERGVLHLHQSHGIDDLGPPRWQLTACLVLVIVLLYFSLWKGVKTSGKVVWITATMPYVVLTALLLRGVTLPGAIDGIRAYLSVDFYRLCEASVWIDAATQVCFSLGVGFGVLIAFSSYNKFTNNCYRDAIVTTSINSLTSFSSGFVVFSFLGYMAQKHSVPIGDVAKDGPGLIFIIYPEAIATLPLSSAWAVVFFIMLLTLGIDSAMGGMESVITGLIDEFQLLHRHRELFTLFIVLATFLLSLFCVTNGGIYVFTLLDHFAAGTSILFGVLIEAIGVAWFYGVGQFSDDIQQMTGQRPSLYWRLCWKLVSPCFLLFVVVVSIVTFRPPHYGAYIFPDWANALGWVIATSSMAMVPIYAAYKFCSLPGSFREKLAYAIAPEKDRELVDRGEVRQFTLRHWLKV
Could you please report measured IC50 for the items listed next?
Respond with the bare value in µM.

Would you kindly share the measured IC50 for C[C@H](N)[C@@H](O)c1ccc(CO)cc1 [Dihydro-(S,S)-4-OH-MC] ?
59.2

Would you kindly share the measured IC50 for C[C@H](N)C(=O)c1ccc(CO)cc1 [S-4-OH-MC] ?
19.2

Would you kindly share the measured IC50 for Cc1ccc([C@@H](O)[C@@H](C)N)cc1 [Dihydro-(R,R)-4-MC] ?
8.05

Would you kindly share the measured IC50 for CN[C@@H](C)[C@@H](O)c1ccc(CO)cc1 [Dihydro-(S,S)-4-OH-MMC] ?
161

----------
target: SERT (Homo sapiens, UniProt P31645); construct: expressed in transfected cells; experiment: Uptake-inhibition of [3H]5-HT in HEK293 cells stably expressing human SERT; type: cell-based; details: IC50 (µM) SERT, mean (95% confidence interval), non-linear regression
Sequence (P31645 whole entry): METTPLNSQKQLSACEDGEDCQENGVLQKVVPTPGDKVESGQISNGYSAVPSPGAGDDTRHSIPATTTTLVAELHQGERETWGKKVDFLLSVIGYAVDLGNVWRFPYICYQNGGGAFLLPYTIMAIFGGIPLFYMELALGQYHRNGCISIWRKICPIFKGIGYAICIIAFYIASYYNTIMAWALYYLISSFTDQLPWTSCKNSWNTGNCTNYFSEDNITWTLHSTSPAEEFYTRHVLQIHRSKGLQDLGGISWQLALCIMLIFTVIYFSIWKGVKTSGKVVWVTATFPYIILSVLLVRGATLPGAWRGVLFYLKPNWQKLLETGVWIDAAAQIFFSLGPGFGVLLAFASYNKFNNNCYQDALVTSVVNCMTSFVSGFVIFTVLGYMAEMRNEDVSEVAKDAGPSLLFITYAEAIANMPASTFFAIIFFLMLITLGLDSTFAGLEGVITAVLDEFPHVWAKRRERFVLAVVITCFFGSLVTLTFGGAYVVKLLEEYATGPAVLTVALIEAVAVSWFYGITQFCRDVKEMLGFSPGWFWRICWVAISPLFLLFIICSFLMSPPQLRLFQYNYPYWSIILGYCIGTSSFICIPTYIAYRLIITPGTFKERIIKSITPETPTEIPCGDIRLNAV
endpointName: IC50 (µM)
Respond with the bare value in µM.

Would you kindly share the measured IC50 for Cc1ccc([C@H](O)[C@H](C)N)cc1 [Dihydro-(S,S)-4-MC] ?
32.2

Would you kindly share the measured IC50 for Cc1ccc([C@@H](O)[C@@H](C)N)cc1 [Dihydro-(R,R)-4-MC] ?
74.6

Would you kindly share the measured IC50 for Cc1ccc([C@@H](O)[C@H](C)N)cc1 [Dihydro-(R,S)-4-MC] ?
66.9

Would you kindly share the measured IC50 for Cc1ccc([C@H](O)[C@@H](C)N)cc1 [Dihydro-(S,R)-4-MC] ?
178

----------
biological target: human NET (Homo sapiens); construct: expressed in transfected cells; assay: cell-based
Could you please report measured Selectivity ratio NET/DAT for the items listed next?
Returns: the value as a bare number; no unit string appended.

Missing value: Selectivity ratio NET/DAT, human NET (Homo sapiens), entry Cc1ccc([C@H](O)[C@@H](C)N)cc1 [Dihydro-(S,R)-4-MC] . Fill in?
0.37

Missing value: Selectivity ratio NET/DAT, human NET (Homo sapiens), entry CN[C@H](C)[C@H](O)c1ccc(CO)cc1 [Dihydro-(R,R)-4-OH-MMC] . Fill in?
0.69

Missing value: Selectivity ratio NET/DAT, human NET (Homo sapiens), entry CNC(C)C(=O)c1ccc(C)cc1 (centres unmarked) [Mephedrone, reference compound] . Fill in?
1.09

Missing value: Selectivity ratio NET/DAT, human NET (Homo sapiens), entry Cc1ccc([C@H](O)[C@H](C)N)cc1 [Dihydro-(S,S)-4-MC] . Fill in?
2.37

Missing value: Selectivity ratio NET/DAT, human NET (Homo sapiens), entry CN[C@@H](C)[C@@H](O)c1ccc(CO)cc1 [Dihydro-(S,S)-4-OH-MMC] . Fill in?
0.55
